System: DMS-114 complex spheroids with HUVEC/MSC, growth % test/control
testMethodNotes: Anticancer human tumor DMS-114 cell line growth inhibition [AhR];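 also: spheroids exposed to agents for 7 days before readout; 100% = DMSO vehicle control wells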
conditionDetails: second compound 10 µM; first compound 1 µM; hits give low values
endpointName: viability, T/C (%)
Form entry: value (%) — number only.

Give viability, T/C only, for Nc1ncn(C2CC(O)C(CO)O2)c(=O)n1 (stereo unspecified) + Cc1cncc(-c2nc(NCCc3c[nH]c4ccccc34)c3ncn(C(C)C)c3n2)c1 , using DMS-114 complex spheroids with HUVEC/MSC, growth % test/control data.
37.1

Give viability, T/C only, for COc1ccc([C@@H](O)c2cc(-c3ncnc4cc(N5CCOCC5)ccc34)c(F)cc2Cl)nn1 + CC(CO)NC(=O)c1cc(-c2ccc(Cl)cc2)nn(-c2cnn(C)c2)c1=O , using DMS-114 complex spheroids with HUVEC/MSC, growth % test/control data.
87.5

Give viability, T/C only, for CC(C)c1c(-c2ccccc2)nc2c(C#N)c[nH]n2c1=O + Cc1cncc(-c2nc(NCCc3c[nH]c4ccccc34)c3ncn(C(C)C)c3n2)c1 , using DMS-114 complex spheroids with HUVEC/MSC, growth % test/control data.
40

Give viability, T/C only, for NS(=O)(=O)OCC1CC(n2ccc3c(NC4CCc5ccccc54)ncnc32)CC1O (stereo unspecified) + Cc1ccccc1N=Nc1ccc(NC(=O)c2ccnn2C)c(C)c1 , using DMS-114 complex spheroids with HUVEC/MSC, growth % test/control data.
25.7

Give viability, T/C only, for COc1cc(C2c3cc4c(cc3C(OC3OC5COC(C)OC5C(O)C3O)C3COC(=O)C23)OCO4)cc(OC)c1O (stereo unspecified) + Cc1ccccc1N=Nc1ccc(NC(=O)c2ccnn2C)c(C)c1 , using DMS-114 complex spheroids with HUVEC/MSC, growth % test/control data.
57.6

Give viability, T/C only, for COc1cc(C2c3cc4c(cc3C(OC3OC5COC(C)OC5C(O)C3O)C3COC(=O)C23)OCO4)cc(OC)c1O (stereo unspecified) + CC(CO)NC(=O)c1cc(-c2ccc(Cl)cc2)nn(-c2cnn(C)c2)c1=O , using DMS-114 complex spheroids with HUVEC/MSC, growth % test/control data.
32.9

---

System: DMS-114 complex spheroids with HUVEC/MSC, growth % test/control
testMethodNotes: Anticancer human tumor DMS-114 cell line growth inhibition [AhR];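 also: spheroids exposed to agents for 7 days before readout; 100% = DMSO vehicle control wells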
conditionDetails: second compound 0.316 µM; first compound 0.00316 µM; hits give low values
endpointName: viability, T/C (%)
Form entry: value (%) — number only.

Item CC[C@@]1(O)C(=O)OCc2c1cc1n(c2=O)Cc2cc3c(CN(C)C)c(O)ccc3nc2-1 + Cc1ccccc1N=Nc1ccc(NC(=O)c2ccnn2C)c(C)c1 : provide viability, T/C
100

Item Cn1ncnc1C1c2n[nH]c(=O)c3cc(F)cc(c23)NC1c1ccc(F)cc1 (configuration not stated) + Cc1cncc(-c2nc(NCCc3c[nH]c4ccccc34)c3ncn(C(C)C)c3n2)c1 : provide viability, T/C
88.1

Item CC1COCCN1c1cc(-c2ccnn2C)c2ccnc(-c3ccn[nH]3)c2n1 (configuration not stated) + Cc1cncc(-c2nc(NCCc3c[nH]c4ccccc34)c3ncn(C(C)C)c3n2)c1 : provide viability, T/C
97.1

Item CC1COCCN1c1cc(-c2ccnn2C)c2ccnc(-c3ccn[nH]3)c2n1 (configuration not stated) + Cc1ccccc1N=Nc1ccc(NC(=O)c2ccnn2C)c(C)c1 : provide viability, T/C
94.3

Item Cn1ncnc1C1c2n[nH]c(=O)c3cc(F)cc(c23)NC1c1ccc(F)cc1 (configuration not stated) + Cc1ccccc1N=Nc1ccc(NC(=O)c2ccnn2C)c(C)c1 : provide viability, T/C
104

Item CC1COCCN1c1cc(-c2ccnn2C)c2ccnc(-c3ccn[nH]3)c2n1 (configuration not stated) + CC(CO)NC(=O)c1cc(-c2ccc(Cl)cc2)nn(-c2cnn(C)c2)c1=O : provide viability, T/C
93

Item Nc1ncn(C2CC(O)C(CO)O2)c(=O)n1 (configuration not stated) + CC(CO)NC(=O)c1cc(-c2ccc(Cl)cc2)nn(-c2cnn(C)c2)c1=O : provide viability, T/C
122

Item CC[C@@]1(O)C(=O)OCc2c1cc1n(c2=O)Cc2cc3c(CN(C)C)c(O)ccc3nc2-1 + CC(CO)NC(=O)c1cc(-c2ccc(Cl)cc2)nn(-c2cnn(C)c2)c1=O : provide viability, T/C
83.2

Item Nc1ncn(C2CC(O)C(CO)O2)c(=O)n1 (configuration not stated) + Cc1ccccc1N=Nc1ccc(NC(=O)c2ccnn2C)c(C)c1 : provide viability, T/C
103

Item Cn1ncnc1C1c2n[nH]c(=O)c3cc(F)cc(c23)NC1c1ccc(F)cc1 (configuration not stated) + CC(CO)NC(=O)c1cc(-c2ccc(Cl)cc2)nn(-c2cnn(C)c2)c1=O : provide viability, T/C
103

Item Nc1ncn(C2CC(O)C(CO)O2)c(=O)n1 (configuration not stated) + Cc1cncc(-c2nc(NCCc3c[nH]c4ccccc34)c3ncn(C(C)C)c3n2)c1 : provide viability, T/C
90.4

Item CC[C@@]1(O)C(=O)OCc2c1cc1n(c2=O)Cc2cc3c(CN(C)C)c(O)ccc3nc2-1 + Cc1cncc(-c2nc(NCCc3c[nH]c4ccccc34)c3ncn(C(C)C)c3n2)c1 : provide viability, T/C
83.8

---

Tested on: DMS-114 complex spheroids with HUVEC/MSC, growth % test/control
testMethodNotes: Anticancer human tumor DMS-114 cell line growth inhibition [AhR];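 also: spheroids exposed to agents for 7 days before readout; 100% = DMSO vehicle control wells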
conditionDetails: second compound 10 µM; first compound 0.316 µM; hits give low values
endpointName: viability, T/C (%)
Form entry: value (%) — number only.

Item COc1cc(C2c3cc4c(cc3C(OC3OC5COC(C)OC5C(O)C3O)C3COC(=O)C23)OCO4)cc(OC)c1O (configuration not stated) + CC(CO)NC(=O)c1cc(-c2ccc(Cl)cc2)nn(-c2cnn(C)c2)c1=O : provide viability, T/C
58

Item O=C(C=Cc1cccc(S(=O)(=O)Nc2ccccc2)c1)NO + CC(CO)NC(=O)c1cc(-c2ccc(Cl)cc2)nn(-c2cnn(C)c2)c1=O : provide viability, T/C
64.6

Item CC(C)c1c(-c2ccccc2)nc2c(C#N)c[nH]n2c1=O + Cc1ccccc1N=Nc1ccc(NC(=O)c2ccnn2C)c(C)c1 : provide viability, T/C
95.6

Item O=C(c1cc(Cc2n[nH]c(=O)c3ccccc23)ccc1F)N1CCN(C(=O)C2CC2)CC1 + Cc1ccccc1N=Nc1ccc(NC(=O)c2ccnn2C)c(C)c1 : provide viability, T/C
87.2

Item CC1COCCN1c1cc(-c2ccnn2C)c2ccnc(-c3ccn[nH]3)c2n1 (configuration not stated) + Cc1ccccc1N=Nc1ccc(NC(=O)c2ccnn2C)c(C)c1 : provide viability, T/C
60.5

Item CC1COCCN1c1cc(-c2ccnn2C)c2ccnc(-c3ccn[nH]3)c2n1 (configuration not stated) + CC(CO)NC(=O)c1cc(-c2ccc(Cl)cc2)nn(-c2cnn(C)c2)c1=O : provide viability, T/C
24.1

Item NS(=O)(=O)OCC1CC(n2ccc3c(NC4CCc5ccccc54)ncnc32)CC1O (configuration not stated) + Cc1cncc(-c2nc(NCCc3c[nH]c4ccccc34)c3ncn(C(C)C)c3n2)c1 : provide viability, T/C
12.2

Item Nc1ccn(C2OC(CO)C(O)C2(F)F)c(=O)n1 (configuration not stated) + Cc1cncc(-c2nc(NCCc3c[nH]c4ccccc34)c3ncn(C(C)C)c3n2)c1 : provide viability, T/C
8.82

Item CC(C)c1c(-c2ccccc2)nc2c(C#N)c[nH]n2c1=O + CC(CO)NC(=O)c1cc(-c2ccc(Cl)cc2)nn(-c2cnn(C)c2)c1=O : provide viability, T/C
96.1

Item NS(=O)(=O)OCC1CC(n2ccc3c(NC4CCc5ccccc54)ncnc32)CC1O (configuration not stated) + CC(CO)NC(=O)c1cc(-c2ccc(Cl)cc2)nn(-c2cnn(C)c2)c1=O : provide viability, T/C
18.3

Item NS(=O)(=O)OCC1CC(n2ccc3c(NC4CCc5ccccc54)ncnc32)CC1O (configuration not stated) + Cc1ccccc1N=Nc1ccc(NC(=O)c2ccnn2C)c(C)c1 : provide viability, T/C
35.9

Item CC1(C)CCC(CN2CCN(c3ccc(C(=O)NS(=O)(=O)c4ccc(NCC5CCOCC5)c([N+](=O)[O-])c4)c(Oc4cnc5[nH]ccc5c4)c3)CC2)=C(c2ccc(Cl)cc2)C1 + CC(CO)NC(=O)c1cc(-c2ccc(Cl)cc2)nn(-c2cnn(C)c2)c1=O : provide viability, T/C
95.6

---

Test system: DMS-114 complex spheroids with HUVEC/MSC, growth % test/control
testMethodNotes: Anticancer human tumor DMS-114 cell line growth inhibition [AhR]; active = viability on the fitted dose curve at most 10% of control; inactive = the rest;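 also: spheroids exposed to agents for 7 days before readout; 100% = DMSO vehicle control wells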
conditionDetails: second compound 10 µM; first compound 3 µM
Excerpt: Multicellular complex tumor spheroid response to aryl hydrocarbon receptor antagonists in combination with a variety of drugs and investigational agents in selected tumor cell lines […] Compounds. […] If the clinical Cmax for an agent had not been determined, the highest concentration tested was 10 microM (Table 1). […]
Answer with one of the outcomes given here: active, inactive

Returns: the outcome recorded for CCN(c1cc(-c2ccc(CN3CCOCC3)cc2)cc(C(=O)NCc2c(C)cc(C)[nH]c2=O)c1C)C1CCOCC1 + Cc1cncc(-c2nc(NCCc3c[nH]c4ccccc34)c3ncn(C(C)C)c3n2)c1 in this assay.
inactive

Returns: the outcome recorded for O=C(C=Cn1cnc(-c2cc(C(F)(F)F)cc(C(F)(F)F)c2)n1)NNc1cnccn1 + CC(CO)NC(=O)c1cc(-c2ccc(Cl)cc2)nn(-c2cnn(C)c2)c1=O in this assay.
active

Returns: the outcome recorded for CCN(c1cc(-c2ccc(CN3CCOCC3)cc2)cc(C(=O)NCc2c(C)cc(C)[nH]c2=O)c1C)C1CCOCC1 + CC(CO)NC(=O)c1cc(-c2ccc(Cl)cc2)nn(-c2cnn(C)c2)c1=O in this assay.
inactive

Returns: the outcome recorded for O=C(C=Cn1cnc(-c2cc(C(F)(F)F)cc(C(F)(F)F)c2)n1)NNc1cnccn1 + Cc1cncc(-c2nc(NCCc3c[nH]c4ccccc34)c3ncn(C(C)C)c3n2)c1 in this assay.
active

Returns: the outcome recorded for O=C(C=Cn1cnc(-c2cc(C(F)(F)F)cc(C(F)(F)F)c2)n1)NNc1cnccn1 + Cc1ccccc1N=Nc1ccc(NC(=O)c2ccnn2C)c(C)c1 in this assay.
inactive

Returns: the outcome recorded for CCN(c1cc(-c2ccc(CN3CCOCC3)cc2)cc(C(=O)NCc2c(C)cc(C)[nH]c2=O)c1C)C1CCOCC1 + Cc1ccccc1N=Nc1ccc(NC(=O)c2ccnn2C)c(C)c1 in this assay.
inactive
